System: KM12 colon
Experiment: NCI-60 one-dose screen, 48 h (100 = growth as untreated, 0 = no growth, -100 = all killed)
Details: 10 µM unless noted
This is part of a sample that, as a whole, favours compounds with a hit. Of some 83,000 tested, about 20% had one in any assay.
Checkbox rule: growth lower than 90% = Satisfied; growth not lower than 90% = Not satisfied.

Reference set (6 entries):
{"COMPOUND": "COc1ccc(C2C(N)=NNC2c2cccc(O)c2)cc1 (stereo not given)", "CLASS LABEL": "Not satisfied"}
{"COMPOUND": "COc1ccc(C(=O)n2nc(-c3ccccc3)nc2N)cc1OC", "CLASS LABEL": "Satisfied"}
{"COMPOUND": "NS(=O)(=O)c1ccc(-n2nc(-c3ccc(Cl)cc3)c3ccccc3c2=O)cc1", "CLASS LABEL": "Not satisfied"}
{"COMPOUND": "COc1c(N2CC3CCCN(C(C)=O)C3C2)c(F)cc2c(=O)c(C(=O)N[C@H]3C(O)[C@@H](O)C(CO)O[C@H]3O)cn(C3CC3)c12 (stereo not given in full)", "CLASS LABEL": "Not satisfied"}
{"COMPOUND": "COc1ccc(OC)c(/C=C/C(=O)N/N=C/c2ccc(Cl)cc2)c1", "CLASS LABEL": "Satisfied"}
{"COMPOUND": "Cc1ccc2sc3c(NCCN)nc4ccccc4c3c(=O)c2c1", "CLASS LABEL": "Satisfied"}

Please find the next compound below.
**Query** Determine if `CCOC(=O)Nc1ccc(-c2nc(-c3cccc(OC)c3)c(-c3ccnc(Br)c3)[nH]2)cc1` shows growth strictly lower than 90%.
**Result** Satisfied

====

Tested on: MDA-MB-231 breast
Experiment: NCI-60 one-dose screen, 48 h
Conditions: 10 µM unless noted
About 83,000 compounds went through this panel and 20% of them were active in at least one assay; those are over-represented in the sample as a whole. Calls of active or inactive are those of the source. Rule for the calls: active = growth percent below 10; inactive = the rest.
Write down the outcome that applies. Available outcomes: active, inactive

{"MOLECULE": "CCCCn1c(=O)c(-c2cc(-c3ccc(Cl)cc3)nc(-c3ccc(Cl)cc3)c2)cc2ccc(Cl)cc21", "CLASS LABEL": "inactive"}

Please find the next molecule below.
**Query** Hi, do you know how `Cc1cc(=O)oc2cc(OC(=O)CN3CCN(C)CC3)ccc12` came out in this test?
**Result** inactive

====

System: COLO 205 colon
Experiment: NCI-60 one-dose screen, 48 h
Conditions: 10 µM unless noted
Experimental: Cells are grown in 96 well plates and exposed to the test compound for 48 hours. Compounds are tested at a single concentration, which is 10^-5 M for most compounds. The reported endpoint is percent growth (GI% or GIPRCNT), where numbers from 0 - 100% represent growth inhibition, and numbers from -100% - 0 represent cell death. For example, a value of 40 represents 60% growth inhibition. A value of 0 means no net growth occurred over the course of the experiment. […]
This is part of a sample that, as a whole, favours compounds with a hit. Of some 83,000 tested, about 20% had one in any assay. Calls of active or inactive are those of the source. The calls were made as follows: active = growth percent below 10; inactive = the rest.
Write down the outcome that applies. Available outcomes: active, inactive

{"COMPOUND": "CC(=O)N1N=C(c2ccc(Nc3nc(Nc4ccc(F)cc4)nc(Nc4ccc(Cl)cc4)n3)cc2)CC1c1ccc(Cl)cc1 (configuration not stated)", "CLASS LABEL": "inactive"}
{"COMPOUND": "c1ccc(-c2nc3nonc3nc2-c2ccccc2)cc1", "CLASS LABEL": "inactive"}
{"COMPOUND": "Cc1cccc2c3c(sc12)C(c1ccc(F)cc1)C(C#N)=C(N)O3 (configuration not stated)", "CLASS LABEL": "active"}
{"COMPOUND": "c1ccc2cc(C[n+]3ccn(CCCCCCn4cc[n+](Cc5ccc6ccccc6c5)c4)c3)ccc2c1", "CLASS LABEL": "inactive"}
{"COMPOUND": "CCc1cccc2c1S/C(=C/c1ccc(Cl)cc1)C2=O", "CLASS LABEL": "inactive"}
{"COMPOUND": "COc1ccc2c(c1)c(-c1ccc(-c3cn(C)c4ccc(OC)cc34)o1)cn2C", "CLASS LABEL": "inactive"}

Please find the next compound below.
**Query** Hi, do you know how `COc1cccc(Cc2cc(-c3ccccc3)nn(CC(=O)c3ccccc3)c2=O)c1` came out in this test?
**Result** inactive

====

Tested on: SNB-75 CNS
Experiment: NCI-60 one-dose screen, 48 h
Conditions: 10 µM unless noted
The panel holds about 83,000 compounds, 20% with a hit somewhere; the sample as a whole holds those more often. Activity calls are given as the source filed them. Rule for the calls: active = growth percent below 10; inactive = the rest.
Write down the outcome that applies. Available outcomes: YES = active, NO = inactive

{"MOLECULE": "Cc1cc(N2CCCC2)nc(N(CCCNc2ccnc3cc(Cl)ccc23)Cc2ccccn2)n1", "CLASS LABEL": "NO"}
{"MOLECULE": "O=c1ccn(Cc2cn(-c3c4ccccc4nc4ccccc34)nn2)c(=O)[nH]1", "CLASS LABEL": "NO"}
{"MOLECULE": "C#Cc1cccc(NC(=O)Nc2ccccc2NC(=O)CCl)c1", "CLASS LABEL": "YES"}
{"MOLECULE": "O=C1c2cccc3cccc(c23)C(=O)N1Nc1nc(N2CCOCC2)nc(N2CCN(c3ccccc3)CC2)n1", "CLASS LABEL": "NO"}
{"MOLECULE": "Cc1ncc(C(=O)Nc2ccc(CN3CCN(C)CC3)c(C(F)(F)F)c2)cc1C#Cc1ccc(N)nc1", "CLASS LABEL": "YES"}
{"MOLECULE": "COc1ccc(OC)c(/C=C/C(=O)N/N=C/c2ccccc2)c1", "CLASS LABEL": "NO"}
{"MOLECULE": "CCN1C(=O)N(CC)C2Nn3c(s/c(=C4\\C(=O)N(CC(C)C)c5ccccc54)c3=O)=NC21 (centres undefined)", "CLASS LABEL": "NO"}
{"MOLECULE": "Oc1ccc(Cl)cc1Cc1cc(Cl)cc(Cl)c1O", "CLASS LABEL": "NO"}

**Query** Hi, do you know how O=C1c2ccccc2NC(n2sc3ccccc3c2=O)N1c1ccccc1 (centres undefined) came out in this test?
**Result** NO

**Query** Hi, do you know how Cc1cccc2c3c(sc12)C(c1ccc(F)cc1)C(C#N)=C(N)O3 (centres undefined) came out in this test?
**Result** NO

**Query** Hi, do you know how COc1ccc2cc(C(C)C(=O)Nc3ccc(-c4n[nH]c(=S)n4C4CCCCC4)cc3)ccc2c1 (centres undefined) came out in this test?
**Result** NO

**Query** Hi, do you know how `O=C(N/N=C/c1c(Cl)cccc1Cl)c1ccc(C(F)(F)F)nc1Nc1cccc(C(F)(F)F)c1` came out in this test?
**Result** NO

**Query** Hi, do you know how `CSc1ncccc1C(=O)OCC(=O)Nc1oc(C)c2c(C)n[nH]c(=O)c12` came out in this test?
**Result** NO

====

System: CAKI-1 renal
Assay: NCI-60 one-dose screen, 48 h (100 = growth as untreated, 0 = no growth, -100 = all killed)
Details: 10 µM unless noted
The panel holds about 83,000 compounds, 20% with a hit somewhere; the sample as a whole holds those more often.
Checkbox rule: growth lower than 80% = Yes; growth not lower than 80% = No.

{"MOLECULE": "NS(=O)(=O)c1ccc(N=Nc2ccc(-c3nn4cc(-c5ccccc5)nc4s3)cc2)cc1", "CLASS LABEL": "No"}
{"MOLECULE": "O=c1c2cc(F)ccc2sc2c(NCCO)nc3ccccc3c12", "CLASS LABEL": "No"}
{"MOLECULE": "CN1CCN(Cc2ccc(NC(=O)c3ccc(C(C)(C)C)c(C#Cc4cnc5cccnn45)c3)cc2C(F)(F)F)CC1", "CLASS LABEL": "Yes"}
{"MOLECULE": "CCCCCCNC(=O)Oc1ccc(/C(=C(\\C)c2ccc(OC)cc2)c2ccc(OCCN3CCCCC3)cc2)cc1", "CLASS LABEL": "Yes"}
{"MOLECULE": "Cc1ccc(C(=O)N/N=C/c2cccc([N+](=O)[O-])c2)cn1", "CLASS LABEL": "No"}
{"MOLECULE": "COc1ccc(-c2cc3c4c(nc5ccccc5c4c2)CC(c2cc(OC)c(OC)c(OC)c2)O3)cc1 (configuration not stated)", "CLASS LABEL": "Yes"}
{"MOLECULE": "O=C(Nc1ccc(-c2nc(-c3cccc(OCCN4CCOCC4)c3)c(-c3ccnc(Br)c3)[nH]2)cc1)c1ccccc1", "CLASS LABEL": "Yes"}
{"MOLECULE": "COc1ccc2[nH]c(-c3ccccc3)c(/C=C(\\C#N)S(=O)(=O)c3ccccc3)c2c1", "CLASS LABEL": "Yes"}
{"MOLECULE": "CN(C)c1ccc2nc3ccc(=[N+](C)C)c([N+](=O)[O-])c-3sc2c1", "CLASS LABEL": "Yes"}
{"MOLECULE": "O=C(N/N=C/[C@H](O)[C@@H](O)[C@@H](O)[C@H](O)CO)c1ccc(NC(=O)c2cccnc2)cc1", "CLASS LABEL": "No"}

**Query** Determine if `N#Cc1c(-c2ccc(Cl)cc2)nc(NCCO)[nH]c1=O` shows growth strictly lower than 80%.
**Result** No

**Query** Determine if `Cc1ccc2sc3c(NCCCN)nc4ccccc4c3c(=O)c2c1` shows growth strictly lower than 80%.
**Result** Yes

**Query** Determine if `CCOC(=O)Nc1ccc(C(=O)/C=C/c2ccccc2)cc1` shows growth strictly lower than 80%.
**Result** No

**Query** Determine if `CCCCCCCCCCCCCCCCCCOc1ccc(CC(=O)OCC[N+](C)(C)C)cc1` shows growth strictly lower than 80%.
**Result** No

**Query** Determine if `CCc1ccccc1-n1c(N)c(C#N)c(-c2ccc(Cl)cc2)c(C#N)c1=O` shows growth strictly lower than 80%.
**Result** No

**Query** Determine if `COc1cc(-c2nc3sccn3c2-c2ccnc(NCCCNS(=O)(=O)c3ccc(F)cc3)n2)ccc1F` shows growth strictly lower than 80%.
**Result** Yes

**Query** Determine if `COc1ccc(OC)c(/C=C/C(=O)N/N=C/c2ccccc2)c1` shows growth strictly lower than 80%.
**Result** Yes
